B1: library; numbered along this chain (parent)
chain: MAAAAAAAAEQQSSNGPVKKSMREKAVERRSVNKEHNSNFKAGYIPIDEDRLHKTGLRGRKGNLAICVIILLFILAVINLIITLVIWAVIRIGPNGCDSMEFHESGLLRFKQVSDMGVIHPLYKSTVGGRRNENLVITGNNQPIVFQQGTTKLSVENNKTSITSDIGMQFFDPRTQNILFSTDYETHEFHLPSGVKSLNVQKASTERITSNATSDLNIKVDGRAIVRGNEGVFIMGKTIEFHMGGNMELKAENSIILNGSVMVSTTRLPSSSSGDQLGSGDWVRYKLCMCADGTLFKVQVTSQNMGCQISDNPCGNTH

Variants of: B1
Assay: SGCB cell-surface expression functional score (HA stain, bin4 vs bin1, normalised to synonymous) (log10 ratio); higher = more cell-surface SGCB (functional)
// thresholds for SGCB cell-surface expression functional score (log10) classes: lowest: < -0.6; middle: ≥ -0.6 and < -0.1; highest: ≥ -0.1

>>> assignedclass("N217W")
"lowest"
>>> assignedclass("V118S")
"highest"
>>> assignedclass("A203F")
"lowest"
>>> assignedclass("R223L")
"highest"
>>> assignedclass("G106E")
"middle"
>>> assignedclass("V298H")
"lowest"
>>> assignedclass("G274V")
"middle"
>>> assignedclass("R267N")
"highest"
>>> assignedclass("A7E")
"middle"
>>> assignedclass("S31F")
"middle"
>>> assignedclass("A224V")
"highest"
>>> assignedclass("I144M")
"lowest"
>>> assignedclass("I45C")
"highest"
>>> assignedclass("Q201N")
"lowest"
>>> assignedclass("A212G")
"highest"
>>> assignedclass("A76N")
"highest"
>>> assignedclass("S181D")
"middle"
>>> assignedclass("A3P")
"highest"
>>> assignedclass("M168E")
"lowest"
>>> assignedclass("I81R")
"lowest"
>>> assignedclass("S260W")
"highest"
>>> assignedclass("T126Q")
"lowest"
>>> assignedclass("V136F")
"highest"
>>> assignedclass("K61F")
"highest"
>>> assignedclass("D183S")
"middle"
>>> assignedclass("R284L")
"middle"
>>> assignedclass("N211C")
"lowest"
>>> assignedclass("K152A")
"highest"
>>> assignedclass("I178M")
"lowest"
>>> assignedclass("F296A")
"middle"
>>> assignedclass("T317V")
"middle"
>>> assignedclass("A224K")
"lowest"
>>> assignedclass("S161A")
"highest"
>>> assignedclass("T238Y")
"highest"
>>> assignedclass("S197E")
"middle"
>>> assignedclass("P94D")
"lowest"
>>> assignedclass("E101T")
"middle"
>>> assignedclass("N177F")
"middle"
>>> assignedclass("S154E")
"middle"
>>> assignedclass("A88C")
"middle"
>>> assignedclass("C288A")
"highest"
>>> assignedclass("L198Y")
"lowest"
>>> assignedclass("G59R")
"middle"
>>> assignedclass("K111E")
"lowest"
>>> assignedclass("S302P")
"lowest"
>>> assignedclass("V200K")
"lowest"
